# tgt: human recombinant CBL-b (human Biotin CBL-b recombinant protein a.a. 39-426) (Homo sapiens)
# Construct: human Biotin CBL-b recombinant protein a.a; 39-426; Biotin (biotinylated)
# experimentDescription: Biochemical assay for CBL-b inhibition (ligand displacement TR-FRET)
# conditionContext: 50 nM CBL-b, 0.3 μM Bodipy FL-Probe, read-out: IC50 (CBL-b inhibition, group)
valueType: IC50

molecule	IC50
C[C@@H](NCC1CC1)c1cc(Cl)nc(N2Cc3ccc(C4(Cc5nncn5C)COC4)cc3C2=O)c1 (single isomer, unassigned) [Compound 166]	< 80 nM
Cc1cc(CNCC2CC2)cc(N2Cc3ccc(-c4ccc(F)cc4-c4nncn4C)cc3C2=O)n1 [Compound 127]	< 80 nM
Cc1cc(CNCC2CCCCN2)cc(N2Cc3ccc(-c4ccc(F)cc4-c4nncn4C)cc3C2=O)n1 (stereo not shown) [Compound 339]	300 to 5000 nM
Cn1cnnc1CC1(c2ccc3c(c2)C(=O)N(c2cc(CNCC(C)(C)O)cc(Cl)n2)C3)COC1 [Compound 187]	< 80 nM
Cc1cc(CNCC2CC2)cc(N2Cc3ccc(-c4ccc(F)cc4-c4nncn4C4CC4)cc3C2=O)n1 [Compound 320]	< 80 nM

Please list IC50 recorded for the molecule Cn1cnnc1CC1(c2ccc3c(c2)C(=O)N(c2cc(CNCc4nccs4)cc(Cl)n2)C3)COC1 [Compound 194]
80 to 300 nM

Please give measured IC50 of the following entry: Cc1cc(CN2CCC3(CC3)C2)cc(N2Cc3ccc(-c4ccc(F)cc4-c4nncn4C)cc3C2=O)n1 [Compound 259]
< 80 nM

* * *

# tgt: human recombinant CBL-b (human Biotin CBL-b recombinant protein a.a. 39-426) (Homo sapiens, UniProt Q13191)
# Construct: human Biotin CBL-b recombinant protein a.a; 39-426; Biotin (biotinylated)
# Sequence (Q13191 39-426): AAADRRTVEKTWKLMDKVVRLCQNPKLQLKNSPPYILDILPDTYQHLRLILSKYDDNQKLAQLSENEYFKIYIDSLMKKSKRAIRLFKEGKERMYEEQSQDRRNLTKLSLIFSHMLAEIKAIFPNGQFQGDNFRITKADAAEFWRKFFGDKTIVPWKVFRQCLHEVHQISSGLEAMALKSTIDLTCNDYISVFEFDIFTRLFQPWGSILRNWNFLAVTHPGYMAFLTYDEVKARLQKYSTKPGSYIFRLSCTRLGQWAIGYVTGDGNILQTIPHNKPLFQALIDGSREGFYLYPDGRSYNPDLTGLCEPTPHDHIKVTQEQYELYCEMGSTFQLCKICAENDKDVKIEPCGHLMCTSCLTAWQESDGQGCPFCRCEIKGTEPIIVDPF
# experimentDescription: Biochemical assay for CBL-b inhibition (ligand displacement TR-FRET)
# conditionContext: 50 nM CBL-b, 0.3 μM Bodipy FL-Probe, read-out: IC50 (CBL-b inhibition, group)
pIC50: −log10 of the molar value.
valueType: pIC50

compound	pIC50
C[C@H]1CCN(Cc2cc(Cl)nc(N3Cc4ccc(C5(Cc6nncn6C)COC5)cc4C3=O)c2)C1 [Compound 67]	6.52 to 7.10
Cc1cc(CN[S+]([O-])C(C)(C)C)cc(N2Cc3ccc(-c4ccc(F)cc4-c4nncn4C)cc3C2=O)n1 (stereo not drawn) [Compound 285]	5.30 to 6.52
Cc1cc(CNCC2CC2)cc(N2Cc3ccc(-c4ccc(F)cc4-c4nccn4C)cc3C2=O)n1 [Compound 304]	> 7.10
Cc1cc(C(C)NCC2CC2)cc(N2Cc3ccc(-c4ccc(F)cc4-c4nncn4C)cc3C2=O)n1 (stereo not drawn) [Compound 282]	> 7.10
CCn1cnnc1-c1cc(F)ccc1-c1ccc2c(c1)C(=O)N(c1cc(CNCC3CC3)cc(C)n1)C2 [Compound 294]	> 7.10

Hello, please tell me recorded pIC50 for this one: Cn1cnnc1CC1(c2ccc3c(c2)C(=O)N(c2cc(CNC(C)(C)C4CC4)cc(Cl)n2)C3)COC1 [Compound 228]
5.30 to 6.52

Note pIC50 for the compound shown: Cc1ccc(CNCc2cc(Cl)nc(N3Cc4ccc(C5(Cc6nncn6C)COC5)cc4C3=O)c2)o1 [Compound 226]
6.52 to 7.10

Note down pIC50 recorded for Cn1cnnc1-c1cc(Cl)ccc1-c1ccc2c(c1)C(=O)N(c1cc(C(C)(C)NCC3CC3)cc(Cl)n1)C2 [Compound 275]
> 7.10

Give the value of pIC50 reported for the following: Cc1cc(N2Cc3ccc(C4(Cc5nncn5C)COC4)cc3C2=O)cc(CN2CCC[C@H](C)C2)n1 [Compound 23]
6.52 to 7.10

Specify reported pIC50 for the compound shown: C[C@@H](NCc1cc(Cl)nc(N2Cc3ccc(-c4ccc(Cl)cc4-c4nncn4C)cc3C2=O)c1)C1CC1 (single isomer, unassigned) [Compound 108]
> 7.10

* * *

# tgt: human recombinant CBL-b (human Biotin CBL-b recombinant protein a.a. 39-426) (Homo sapiens)
# Construct: human Biotin CBL-b recombinant protein a.a; 39-426; Biotin (biotinylated)
# experimentDescription: Biochemical assay for CBL-b inhibition (ligand displacement TR-FRET)
# conditionContext: 50 nM CBL-b, 0.3 μM Bodipy FL-Probe, read-out: IC50 (CBL-b inhibition, group)
valueType: IC50

compound	IC50
CC1CCCN1Cc1cc(Cl)nc(N2Cc3ccc(C4(Cc5nncn5C)COC4)cc3C2=O)c1 (stereo not shown)	300 to 5000 nM
Cn1cnnc1C[C@]1(c2ccc3c(c2)C(=O)N(c2cc(CNCC4CCC4)cc(Cl)n2)C3)C[C@H](C#N)C1 (single isomer, unassigned)	< 80 nM
C[C@H]1CCCN(Cc2cc(Cl)nc(N3Cc4ccc(-c5ccc(C#N)cc5-c5nncn5C)cc4C3=O)c2)C1	< 80 nM
C[C@H]1CCCN(Cc2cc(Cl)nc(N3Cc4ccc(C5(Cc6nncn6C)CC(F)(F)C5)cc4C3=O)c2)C1	< 80 nM
COCCN(Cc1cc(C)nc(N2Cc3ccc(-c4ccc(F)cc4-c4nncn4C)cc3C2=O)c1)CC1CC1	300 to 5000 nM
Cn1cnnc1CC1(c2ccc3c(c2)C(=O)N(c2cc(CNCC4CC4)cc(Cl)n2)C3)COC1	< 80 nM

As a next step, examine the compound that follows.
Give a short answer stating reported IC50 for Cn1cnnc1CC1(c2ccc3c(c2)C(=O)N(c2cc(CNCCC(F)(F)F)cc(Cl)n2)C3)CCC1 .
< 80 nM

* * *

# tgt: human recombinant CBL-b (human Biotin CBL-b recombinant protein a.a. 39-426) (Homo sapiens)
# Construct: human Biotin CBL-b recombinant protein a.a; 39-426; Biotin (biotinylated)
# experimentDescription: Biochemical assay for CBL-b inhibition (ligand displacement TR-FRET)
# conditionContext: 50 nM CBL-b, 0.3 μM Bodipy FL-Probe, read-out: IC50 (CBL-b inhibition, group)
pIC50: −log10 of the molar value.
Below is a list of entries, each paired with its recorded pIC50 value.

compound	pIC50
C=Cc1cc(CN2CCC[C@H](C)C2)cc(N2Cc3ccc(C4(Cc5nncn5C)COC4)cc3C2=O)c1 [Compound 9]	6.52 to 7.10
Cn1cnnc1CC1(c2ccc3c(c2)C(=O)N(c2cc(CN4CCCC(F)C4)cc(C(F)(F)F)n2)C3)COC1 (centres unmarked) [Compound 33]	5.30 to 6.52
Cn1cnnc1CC1(c2ccc3c(c2)C(=O)N(c2cc(CN4CCCCCC4)cc(Cl)n2)C3)COC1 [Compound 157]	> 7.10
C[C@H]1CCCN(Cc2cc(Cl)nc(N3Cc4ccc([C@@H](Cc5nncn5C)C(F)(F)F)cc4C3=O)c2)C1 (single isomer, unassigned) [Compound 180]	6.52 to 7.10
Cc1cc(C(C)c2nccn2C)cc(N2Cc3ccc(-c4ccc(F)cc4-c4nncn4C)cc3C2=O)n1 (centres unmarked) [Compound 334]	5.30 to 6.52
Cc1nc(N2Cc3ccc(-c4ccc(F)cc4-c4nncn4C)cc3C2=O)cc(CNCC2CC2)c1F [Compound 261]	> 7.10
Cc1cc(CNC(CC(C)(C)O)C2CC2)cc(N2Cc3ccc(-c4ccc(F)cc4-c4nncn4C)cc3C2=O)n1 (centres unmarked) [Compound 338]	6.52 to 7.10
CC(Cc1nncn1C)c1ccc2c(c1)C(=O)N(c1cc(CN3C[C@H](C)C[C@H](C)C3)cc(Cl)n1)C2 (some centres unmarked) [Compound 84]	6.52 to 7.10

Please report the measured pIC50 for Cn1cnnc1CC1(c2ccc3c(c2)C(=O)N(c2cc(CNCC4CCC4)cc(C(F)(F)F)n2)C3)COC1 [Compound 162]
> 7.10

Identify pIC50 associated with the compound C[C@H]1CCCN(Cc2cc(N3CCCC3)cc(N3Cc4ccc(C5(Cc6nncn6C)COC5)cc4C3=O)c2)C1 [Compound 21]
5.30 to 6.52

Give a short answer stating reported pIC50 for Cn1cnnc1CC1(c2ccc3c(c2)C(=O)N(c2cc(CN4CCC5OCCC54)cc(Cl)n2)C3)COC1 (centres unmarked) [Compound 192] .
5.30 to 6.52

Report pIC50 for Cc1cc(CNCC2(O)CC2)cc(N2Cc3ccc(-c4ccc(F)cc4-c4nncn4C)cc3C2=O)n1 [Compound 311]
> 7.10

Note pIC50 for the compound shown: C[C@@H]1C[C@H](C)CN(Cc2cc(N3Cc4ccc(C5(Cc6nncn6C)CC(C#N)C5)cc4C3=O)nc(C(F)(F)F)c2)C1 (some centres unmarked) [Compound 143]
> 7.10

Please look at this compound and report its pIC50: Cc1cc(CNCCC2CC2)cc(N2Cc3ccc(-c4ccc(F)cc4-c4nncn4C)cc3C2=O)n1 [Compound 307]
> 7.10

* * *

# tgt: human recombinant CBL-b (human Biotin CBL-b recombinant protein a.a. 39-426) (Homo sapiens)
# Construct: human Biotin CBL-b recombinant protein a.a; 39-426; Biotin (biotinylated)
# experimentDescription: Biochemical assay for CBL-b inhibition (ligand displacement TR-FRET)
# conditionContext: 50 nM CBL-b, 0.3 μM Bodipy FL-Probe, read-out: IC50 (CBL-b inhibition, group)
valueType: IC50

Solved entries:
compound	IC50
Cc1cc(CNCC(O)CN)cc(N2Cc3ccc(-c4ccc(F)cc4-c4nncn4C)cc3C2=O)n1 (stereo not drawn) [Compound 318]	300 to 5000 nM
CC(C)C(Cc1nncn1C)c1ccc2c(c1)C(=O)N(c1cc(CN3CCC[C@H](C)C3)cc(Cl)n1)C2 (stereo partly drawn) [Compound 165]	300 to 5000 nM
Cc1cc([C@@H](C)NC2CCCC2)cc(N2Cc3ccc(-c4ccc(Cl)cc4-c4nncn4C)cc3C2=O)n1 (single isomer, unassigned) [Compound 126]	< 80 nM
Cn1cnnc1CC1(c2ccc3c(c2)C(=O)N(c2cc(CNCC4(O)CCC4)cc(Cl)n2)C3)COC1 [Compound 216]	< 80 nM

Tell us which IC50 value is on record for Cn1cnnc1CC1(c2ccc3c(c2)C(=O)N(c2cc(CNCCC(F)(F)F)cc(Cl)n2)C3)CC(C#N)C1 (stereo not drawn) [Compound 158]
< 80 nM

Identify IC50 associated with the compound CCN(CC)Cc1cc(Cl)nc(N2Cc3ccc(C4(Cc5nncn5C)COC4)cc3C2=O)c1 [Compound 79]
300 to 5000 nM

Complete the entry with IC50 for CC(NCC1CC(F)(F)C1)c1cc(Cl)nc(N2Cc3ccc(-c4ccc(Cl)cc4-c4nncn4C)cc3C2=O)c1 (stereo not drawn) [Compound 121]
< 80 nM

In one line, give reported IC50 of the entry Cn1cnnc1-c1cc(Cl)ccc1-c1ccc2c(c1)C(=O)N(c1cc(CNCC3CC3)cc(C(F)(F)F)n1)C2 [Compound 132] .
< 80 nM

Input COc1cc(CN2CCC[C@H](C)C2)cc(N2Cc3ccc(C4(Cc5nncn5C)COC4)cc3C2=O)c1 [Compound 5] , output reported IC50.
80 to 300 nM
